Reported GI50 is given for each of the following compounds.
- Test system: SK-MEL-5
- assay_comment: NCI tumour cell line growth inhibition, 48 h
Activity calls are given as the source filed them. Cut-off read from the data, not from the text of the source: active = GI50 up to about 1.1 µM and inactive = higher.

compound: O=C1NC(Nc2ccccc2Cl)=N/C1=C\c1c(Cl)cccc1Cl
GI50: 20.3 µM (inactive)

compound: COC(=O)c1ccccc1CC1Cc2cc3c(cc2C1)CCC3
GI50: 25.8 µM (inactive)

compound: CSc1sc(=S)sc1C(=O)N(C)c1ccccc1
GI50: > 100 µM (inactive)

compound: C/C1=C\CC[C@@]2(C)O[C@@H]2[C@H]2OC(=O)C(C)C2C[C@H]1O (some centres not stated)
GI50: 22.5 µM (inactive)

compound: O=C(CCc1nnc2s/c(=C\c3ccccc3Cl)c(=O)n12)Nc1cc(Cl)ccc1Cl
GI50: > 100 µM (inactive)

compound: C=CCn1c2c(sc1=S)C(S)NC=N2 (configuration not stated)
GI50: 54.5 µM (inactive)

compound: CC12CC/C(=N/NC(N)=O)C3C1CCCC32
GI50: > 100 µM (inactive)

compound: CCc1nc(N)nc(N)c1-c1ccc(Cl)c(/N=N/N(C)C)c1
GI50: 20.7 µM (inactive)

compound: O=C(OCc1ccccc1)C1(N2CN(C3(C(=O)OCc4ccccc4)CCCC3)CN(C3(C(=O)OCc4ccccc4)CCCC3)C2)CCCC1
GI50: > 10 µM (inactive)

compound: CC1=NN(c2cccc(Cl)c2)C(=N/c2nc3ccccc3s2)/C1=C\c1cccs1
GI50: 28.1 µM (inactive)

compound: C=CN(C=C)C(=O)Cn1cc(-c2ccccc2)nn1
GI50: > 100 µM (inactive)

compound: COC(=O)C1=C(C)N2[C@H](C(=O)O)CS[C@@]2(C)[C@H](C(=O)OC)[C@H]1c1cccc([N+](=O)[O-])c1
GI50: > 100 µM (inactive)

compound: O=C1c2ccccc2C2(c3ccc(Cl)cc3)NCc3ccccc3CN12 (configuration not stated)
GI50: 16 µM (inactive)

compound: COC(=O)Cc1c(-c2[nH]c3ccccc3c2CC(=O)OC)[nH]c2ccccc12
GI50: > 52.7 µM (inactive)

compound: COc1cc(/C=C2\C[C@H]3[C@@H]4CC=C5C[C@@H](OC(C)=O)CC[C@]5(C)[C@H]4CC[C@]3(C)\C2=N\O)cc(OC)c1OC
GI50: 3.61 µM (inactive)

compound: NC1=Nc2ccccc2Sc2nncn21
GI50: > 100 µM (inactive)

compound: Cc1c(Cl)cccc1/N=N/C(=O)NNc1cccc(Cl)c1C
GI50: 15.3 µM (inactive)

compound: CC(=O)Nc1c(S(=O)(=O)c2ccccc2)c(C)c(C)n1CCN(C)C
GI50: > 100 µM (inactive)

compound: O=c1[nH]c(=O)n([C@H]2CCCO2)cc1F
GI50: 845 µM (inactive)

compound: Clc1cccc(Cl)c1C1SCC2=Nc3ccccc3CN21 (configuration not stated)
GI50: 15.8 µM (inactive)

compound: Cn1cnc([N+](=O)[O-])c1Sc1nc(N)nc2c1ncn2[C@H]1C[C@H](O)[C@@H](CO)O1
GI50: 4.08 µM (inactive)

compound: O=C1c2cccc([N+](=O)[O-])c2C(=O)N1Cc1ccccc1
GI50: > 100 µM (inactive)

* * *

- Test system: Malme-3M
- assay_comment: NCI tumour cell line growth inhibition, 48 h
Active and inactive are the calls of the source. No stated cut-off is given here; in the data, active = GI50 up to about 1.1 µM and inactive = higher.
Outcomes: true = active, false = inactive

compound: COc1ccc(/C=C2/CSCC3=C2N=C(S)NC3c2ccc(OC)c(OC)c2OC)c(OC)c1OC (centres undefined)
system_name: Malme-3M
category_label: false

compound: O=[N+]([O-])c1ccc(/N=N/c2c(O)ccc3cc(S(=O)(=O)O)ccc23)cc1
system_name: Malme-3M
category_label: false

compound: FC(F)(F)C1(Br)C(c2ccccc2)=C1c1ccccc1
system_name: Malme-3M
category_label: false

compound: C[n+]1cn(-c2ccc([N+](=O)[O-])cn2)c2ccccc21
system_name: Malme-3M
category_label: false

compound: COC(=O)c1c2c(cc3c1CC1(C3)Cc3cc4c(c(C(=O)OC)c3C1)CCC4)CCC2
system_name: Malme-3M
category_label: false

compound: CCN(CC)C(=S)N/N=C1\C(=O)Nc2ccccc21
system_name: Malme-3M
category_label: true

compound: O=S1OC2(c3ccccc3-c3ccccc32)c2ccccc21 (centres undefined)
system_name: Malme-3M
category_label: false

compound: CC(C)=CCc1c2c(c(O)c3c(=O)c4c(oc13)-c1ccc(O)cc1OC4C=C(C)C)C=CC(C)(C)O2 (centres undefined)
system_name: Malme-3M
category_label: false

compound: CCOC(=O)CCC(=O)C1c2cccc(O)c2C(=O)c2c(O)cccc21
system_name: Malme-3M
category_label: false

Measured values drawn from ChEMBL document CHEMBL1201862 for this set.
